Would you mind telling me the reported koff of each entry?
target: T1, recombinant human PVRIG-human IgG1 Fc fusion protein (human); assay: SPR (Biacore), human PVRIG-human IgG1 Fc on chip, antibody in flow, 1:1 model
T1 construct: no linker is told; also called human PVRIG-Fc fusion protein
T1 sequence (chain, as listed by the source limits assumed): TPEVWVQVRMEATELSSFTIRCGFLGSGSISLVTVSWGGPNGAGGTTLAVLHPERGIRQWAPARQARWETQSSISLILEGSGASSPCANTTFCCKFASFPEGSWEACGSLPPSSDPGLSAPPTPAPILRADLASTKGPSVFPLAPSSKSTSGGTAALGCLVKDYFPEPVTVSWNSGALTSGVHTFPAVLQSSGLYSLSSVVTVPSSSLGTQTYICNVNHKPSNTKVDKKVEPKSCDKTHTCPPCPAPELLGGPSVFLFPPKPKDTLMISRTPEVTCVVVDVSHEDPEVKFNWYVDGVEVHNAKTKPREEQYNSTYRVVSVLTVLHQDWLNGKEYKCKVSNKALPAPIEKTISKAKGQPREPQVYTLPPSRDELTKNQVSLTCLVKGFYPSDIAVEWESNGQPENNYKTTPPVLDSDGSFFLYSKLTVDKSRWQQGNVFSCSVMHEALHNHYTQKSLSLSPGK

Given item Antibody 2 (antibody, V domains shown, Murine monoclonal antibody from hybridoma ascites; also called murine antibody Antibody 2) VH: QVQLQQSGAELTKPGASVKISCKATGYTFSTFAIDWIKQRPGHGLAWIGEILPGGNNTNYNEKFKGKATFTADTSSNTAYMHLSSLTSEDSAVYYCSTYWFAYWGQGTLVTVSA VL: DIVMTQSPSSLSVSAGEKVTMSCKSSQSLLNSGNQKNYLAWYQQKPGQPPKLLMYGASTRESGVPDRFTGSGSGTDFTLTISSVQAEDLAVYYCQNAHSYPPAFGAGTKLELK , the value recorded as its koff is 0.000137 s⁻¹

Given item Antibody 4-hu1 (antibody, human IgG4 S228P, kappa, V domains shown, Humanized Antibody 4; heavy chain IgG4 with S228P already in the entry) VH: EVQLVQSGAEVKKPGSSVKVSCKASGGTFSSFSIEWVRQAPGQGLEWMGEILPGSNSTNYNEKFKGRVTITADESTSTAYMELSSLRSEDTAVYYCARYWFAYWGQGTLVTVSS VL: DIVMTQSPDSLAVSLGERATINCKSSQSLLNSGNQKNYLAWYQQKPGQPPKLLIYGASTRESGVPDRFSGSGSGTDFTLTISSLQAEDVAVYYCQNAHSYPPTFGQGTKLEIKR , the value recorded as its koff is 2.32e-05 s⁻¹

Given item Antibody 4-hu4 (antibody, human IgG4 S228P, kappa, V domains shown, Humanized Antibody 4; heavy chain IgG4 with S228P already in the entry) VH: EVQLVQSGAEVKKPGSSVKVSCKASGGTFSSFSIEWVRQAPGQGLEWIGEILPGSNSTNYNEKFKGRVTFTADESTSTAYMELSSLRSEDTAVYYCSSYWFAYWGQGTLVTVSS VL: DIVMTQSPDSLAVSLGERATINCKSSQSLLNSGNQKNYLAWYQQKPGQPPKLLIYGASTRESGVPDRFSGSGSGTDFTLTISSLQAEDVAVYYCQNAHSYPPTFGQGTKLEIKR , the value recorded as its koff is 4.44e-05 s⁻¹
